Please respond with reported Dmax for every item in the list.
- target: IKZF1 (Homo sapiens (Human), UniProt Q13422+Q96SW2)
- Sequence (Q13422 whole entry, one chain of several): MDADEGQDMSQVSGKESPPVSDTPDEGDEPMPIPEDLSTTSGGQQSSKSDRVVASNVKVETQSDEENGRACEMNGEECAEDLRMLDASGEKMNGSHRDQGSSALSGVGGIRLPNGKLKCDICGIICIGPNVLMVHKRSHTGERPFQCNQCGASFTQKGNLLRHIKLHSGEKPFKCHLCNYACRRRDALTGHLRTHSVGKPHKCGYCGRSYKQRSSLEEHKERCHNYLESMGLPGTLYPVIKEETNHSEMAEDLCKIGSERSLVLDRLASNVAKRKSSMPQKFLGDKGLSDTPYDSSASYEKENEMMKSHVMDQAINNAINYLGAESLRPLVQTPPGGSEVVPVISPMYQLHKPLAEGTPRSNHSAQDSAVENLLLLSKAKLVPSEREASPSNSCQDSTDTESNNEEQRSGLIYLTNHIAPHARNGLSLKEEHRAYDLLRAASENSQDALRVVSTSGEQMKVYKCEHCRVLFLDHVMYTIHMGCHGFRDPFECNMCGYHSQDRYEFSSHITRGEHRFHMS
- methodNotes: In vitro IKZF1 HiBit Assay (HEK293T Flp-in-HiBiT-IKZF1 stable cell line)
- Format: cell-based
- testSettings: HEK-293T; HEK293T Flp-in-HiBiT-IKZF1 stable cell line, 6 hrs incubation; read-out: IKZF1 HiBit Dmax (%)

Give one value of Dmax per listed molecule.
1. CC(C)Oc1n[nH]c2c(CN3CCCC3)cc(-c3ccc4c(c3)CN(C3CCC(=O)NC3=O)C4=O)nc12 (stereo not shown)
2. CN(C)c1n[nH]c2c(CN3CCCC3)cc(-c3ccc4c(c3)CN(C3CCC(=O)NC3=O)C4=O)nc12 (stereo not shown)
3. Cc1nc2c(CN3CCCC3)cc(-c3ccc4c(c3)CN(C3CCC(=O)NC3=O)C4=O)nc2n1C1COC1 (stereo not shown)

Output:
1. < 20%
2. 40 to 60%
3. < 20%

Task: So what's the measured Dmax for this one? Cn1ccc2c(CN3CCC(n4ccnc4)CC3)cc(-c3ccc4c(c3)CN(C3CCC(=O)NC3=O)C4=O)nc21 (stereo not shown)
Output: < 20%

====

Please respond with reported Dmax for every item in the list.
- target: IKZF1 (Homo sapiens (Human), UniProt Q13422+Q96SW2)
- methodNotes: In vitro IKZF1 HiBit Assay (HEK293T Flp-in-HiBiT-IKZF1 stable cell line)
- Type: cell-based
- testSettings: HEK-293T; HEK293T Flp-in-HiBiT-IKZF1 stable cell line, 6 hrs incubation; read-out: IKZF1 HiBit Dmax (%)

[
  {
    "molecule": "O=C1CCC(N2Cc3cc(-c4cc(CN5CCCC5)c5c(n4)C(=O)NC5)ccc3C2=O)C(=O)N1 (stereo not drawn) [Example 233]",
    "target": "IKZF1 (Homo sapiens (Human), UniProt Q13422+Q96SW2)",
    "Dmax": "< 20%"
  }
]

Give one value of Dmax per listed molecule.
1. Cn1ccc2c(CN3CCC(F)(F)CC3)cc(-c3ccc4c(c3)CN(C3CCC(=O)NC3=O)C4=O)nc21 (stereo not drawn) [Example 60]
2. O=C1CCC(N2Cc3cc(-c4cc(CN5CCC(F)C5)c5cc[nH]c5n4)ccc3C2=O)C(=O)N1 (stereo not drawn) [Example 127]

Output:
["< 20%", "20 to 40%"]

Give one value of Dmax per listed molecule.
1. Cn1ccc2c(CN3CCC(C(F)(F)F)CC3)cc(-c3ccc4c(c3)CN(C3CCC(=O)NC3=O)C4=O)nc21 (stereo not drawn) [Example 90]
2. CN(C)C(=O)Cn1ccc2c(CN3CCCC3)cc(-c3ccc4c(c3)CN(C3CCC(=O)NC3=O)C4=O)nc21 (stereo not drawn) [Example 149]
3. Cn1ccc2c(C(=O)N3CCCC3)cc(-c3ccc4c(c3)CN(C3CCC(=O)NC3=O)C4=O)nc21 (stereo not drawn) [Example 89]
4. Cn1ccc2c(O[C@@H]3CCNC3)cc(-c3ccc4c(c3)CN([C@H]3CCC(=O)NC3=O)C4=O)nc21 [Example 219]

Output:
1. 20 to 40%
2. < 20%
3. < 20%
4. 20 to 40%

Give one value of Dmax per listed molecule.
1. O=C1CCC(N2Cc3cc(-c4cc(CN5CCCC5)c5nccc(NC6CC6)c5n4)ccc3C2=O)C(=O)N1 (stereo not drawn) [Example 244]
2. Cn1ccc2c(CN3CCC4(CC3)CC4)cc(-c3ccc4c(c3)CN(C3CCC(=O)NC3=O)C4=O)nc21 (stereo not drawn) [Example 64]
3. Nc1n[nH]c2c(CN3CCC3)cc(-c3ccc4c(c3)CN(C3CCC(=O)NC3=O)C4=O)nc12 (stereo not drawn) [Example 208]

Output:
1. < 20%
2. 20 to 40%
3. < 20%

Give one value of Dmax per listed molecule.
1. O=C1CCC(N2Cc3cc(-c4cc(CN5CCC(O)C5)c5ccn(C6CC6)c5n4)ccc3C2=O)C(=O)N1 (stereo not drawn) [Example 142]
2. Cn1ccnc1N1CCN(Cc2cc(-c3ccc4c(c3)CN(C3CCC(=O)NC3=O)C4=O)nc3c2ccn3C)CC1 (stereo not drawn) [Example 99]
3. Cn1ccc2c(CN3CC4COCC4C3)cc(-c3ccc4c(c3)CN(C3CCC(=O)NC3=O)C4=O)nc21 (stereo not drawn) [Example 63]
4. CC(C)Cn1ccc2c(CN3CCCC3)cc(-c3ccc4c(c3)CN(C3CCC(=O)NC3=O)C4=O)nc21 (stereo not drawn) [Example 140]
5. Cn1ccc2c(CN3CCCC3)cc(-c3ccc4c(c3F)CN(C3CCC(=O)NC3=O)C4=O)nc21 (stereo not drawn) [Example 75]

Output:
1. < 20%
2. < 20%
3. 20 to 40%
4. < 20%
5. 20 to 40%

====

- target: IKZF2 (Homo sapiens (Human), UniProt Q96SW2+Q9UKS7)
- Sequence (Q9UKS7 whole entry): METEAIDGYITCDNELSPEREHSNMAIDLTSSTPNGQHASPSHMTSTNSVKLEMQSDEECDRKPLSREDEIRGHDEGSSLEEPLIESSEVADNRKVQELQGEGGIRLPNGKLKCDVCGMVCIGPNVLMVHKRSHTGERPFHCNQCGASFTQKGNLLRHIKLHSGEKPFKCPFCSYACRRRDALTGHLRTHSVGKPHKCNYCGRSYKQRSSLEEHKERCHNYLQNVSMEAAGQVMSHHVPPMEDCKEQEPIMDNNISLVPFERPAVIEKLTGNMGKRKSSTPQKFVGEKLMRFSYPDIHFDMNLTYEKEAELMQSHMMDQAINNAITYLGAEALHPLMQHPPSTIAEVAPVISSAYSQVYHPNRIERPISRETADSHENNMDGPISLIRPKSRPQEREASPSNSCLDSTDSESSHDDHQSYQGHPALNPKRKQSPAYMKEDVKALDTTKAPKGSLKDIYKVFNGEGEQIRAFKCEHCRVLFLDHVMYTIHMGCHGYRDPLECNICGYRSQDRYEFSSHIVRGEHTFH
- Sequence (Q96SW2 whole entry): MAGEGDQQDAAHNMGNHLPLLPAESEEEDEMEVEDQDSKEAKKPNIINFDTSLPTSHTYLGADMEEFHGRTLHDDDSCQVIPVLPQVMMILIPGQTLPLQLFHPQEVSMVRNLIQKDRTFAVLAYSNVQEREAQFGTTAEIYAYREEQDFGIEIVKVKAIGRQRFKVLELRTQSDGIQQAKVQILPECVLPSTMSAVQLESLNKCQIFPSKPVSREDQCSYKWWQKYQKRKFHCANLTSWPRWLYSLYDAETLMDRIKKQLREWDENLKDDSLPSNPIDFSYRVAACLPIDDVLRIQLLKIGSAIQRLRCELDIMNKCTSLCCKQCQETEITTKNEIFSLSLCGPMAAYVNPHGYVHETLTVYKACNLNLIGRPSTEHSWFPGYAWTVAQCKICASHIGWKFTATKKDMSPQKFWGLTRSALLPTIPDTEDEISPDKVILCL
- Sequence (Q16531 2-1140 partner): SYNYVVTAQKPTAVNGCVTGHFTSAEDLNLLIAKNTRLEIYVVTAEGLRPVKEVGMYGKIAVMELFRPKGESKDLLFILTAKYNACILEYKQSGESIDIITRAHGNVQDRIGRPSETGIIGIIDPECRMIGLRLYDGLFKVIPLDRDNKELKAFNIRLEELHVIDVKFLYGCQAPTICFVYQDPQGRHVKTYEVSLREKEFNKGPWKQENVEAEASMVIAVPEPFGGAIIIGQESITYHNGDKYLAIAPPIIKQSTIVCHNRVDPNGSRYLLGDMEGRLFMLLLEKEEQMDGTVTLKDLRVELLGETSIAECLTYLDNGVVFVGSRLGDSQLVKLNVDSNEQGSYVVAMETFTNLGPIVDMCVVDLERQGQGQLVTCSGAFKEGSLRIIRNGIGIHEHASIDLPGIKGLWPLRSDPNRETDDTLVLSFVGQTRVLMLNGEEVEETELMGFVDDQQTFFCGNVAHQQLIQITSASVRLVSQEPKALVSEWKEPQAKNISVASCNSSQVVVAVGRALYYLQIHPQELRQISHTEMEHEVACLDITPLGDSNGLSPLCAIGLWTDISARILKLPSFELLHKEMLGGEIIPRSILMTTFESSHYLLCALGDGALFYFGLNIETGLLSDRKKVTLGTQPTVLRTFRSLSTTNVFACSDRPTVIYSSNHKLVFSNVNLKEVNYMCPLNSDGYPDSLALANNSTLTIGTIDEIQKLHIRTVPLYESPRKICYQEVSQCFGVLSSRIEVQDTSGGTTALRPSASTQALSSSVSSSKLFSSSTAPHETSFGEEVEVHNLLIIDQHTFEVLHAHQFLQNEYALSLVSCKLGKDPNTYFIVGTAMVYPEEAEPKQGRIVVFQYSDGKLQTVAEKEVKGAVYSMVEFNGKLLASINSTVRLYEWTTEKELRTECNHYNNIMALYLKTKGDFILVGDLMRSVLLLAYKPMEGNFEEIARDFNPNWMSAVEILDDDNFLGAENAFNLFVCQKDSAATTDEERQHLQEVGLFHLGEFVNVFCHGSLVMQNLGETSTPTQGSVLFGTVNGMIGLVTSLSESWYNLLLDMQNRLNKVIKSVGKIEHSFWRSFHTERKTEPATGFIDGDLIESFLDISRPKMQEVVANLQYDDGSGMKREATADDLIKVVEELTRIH
- methodNotes: In vitro IKZF2 HiBit Assay (HEK293T Flp-in-HiBiT cells)
- Assay type: cell-based
- testSettings: HEK293T Flp-in-HiBiT cells, 6 hrs incubation; read-out: IKZF2 HiBit DC50
metric: DC50

See these solved cases before continuing.
[
  {
    "compound": "Cn1ccnc1N1CCN(Cc2cc(-c3ccc4c(c3)CN(C3CCC(=O)NC3=O)C4=O)nc3c2ccn3C)CC1 (stereo not shown)",
    "DC50": "10 to 100 nM"
  },
  {
    "compound": "O=C1CCC(N2Cc3cc(-c4cc(CN5CCCC5)c5cc[nH]c5n4)c(F)cc3C2=O)C(=O)N1 (stereo not shown)",
    "DC50": "100 to 1000 nM"
  }
]

Give one value of DC50 per listed compound.
1. Cn1ccc2c(Cn3ccnc3)cc(-c3ccc4c(c3)CN(C3CCC(=O)NC3=O)C4=O)nc21 (stereo not shown)
2. CCc1c(-c2ccc3c(c2)CN(C2CCC(=O)NC2=O)C3=O)nc2c(ccn2C2COC2)c1CN1CCCC1 (stereo not shown)
3. Nc1n[nH]c2c(CN3CCC4(CC3)COC4)cc(-c3ccc4c(c3)CN(C3CCC(=O)NC3=O)C4=O)nc12 (stereo not shown)
4. CN1CC(n2ncc3c(CN4CCCC4)cc(-c4ccc5c(c4)CN(C4CCC(=O)NC4=O)C5=O)nc32)C1 (stereo not shown)
5. O=C1CCC(N2Cc3cc(-c4cc(CN5CCC(CO)C5)c5ccn(C6CC6)c5n4)ccc3C2=O)C(=O)N1 (stereo not shown)

Output:
1. 10 to 100 nM
2. 1 to 10 nM
3. 10 to 100 nM
4. 1 to 10 nM
5. 1 to 10 nM

====

- target: IKZF2 (Homo sapiens (Human), UniProt Q96SW2+Q9UKS7)
- methodNotes: In vitro IKZF2 FACS Assay in Jurkat cells
- Type: cell-based
- testSettings: 24 hrs, maximal degradation percentage
Structures can show the parent of a compound that is named as a salt.
metric: Dmax

[
  {
    "compound": "O=C1CCC(N2Cc3cc(-c4cc(CN5CCC6(CCC6)CC5)cc5cncn45)ccc3C2=O)C(=O)N1 (stereo not shown)",
    "target": "IKZF2 (Homo sapiens (Human), UniProt Q96SW2+Q9UKS7)",
    "result": "40 to 60%"
  },
  {
    "compound": "Nc1n[nH]c2c(CN3CCC(F)CC3)cc(-c3ccc4c(c3)CN(C3CCC(=O)NC3=O)C4=O)nc12 (stereo not shown)",
    "target": "IKZF2 (Homo sapiens (Human), UniProt Q96SW2+Q9UKS7)",
    "result": "> 80%"
  },
  {
    "compound": "COC1CCN(Cc2cc(-c3ccc4c(c3F)CN(C3CCC(=O)NC3=O)C4=O)nc3c2ccn3C2CS(=O)(=O)C2)CC1 (stereo not shown) [Example 266, formate]",
    "target": "IKZF2 (Homo sapiens (Human), UniProt Q96SW2+Q9UKS7)",
    "result": "> 80%"
  }
]

# ---- query compound ----
Task: Query for IKZF2 (Homo sapiens (Human), UniProt Q96SW2+Q9UKS7): what Dmax does the record show for C[C@@H](NCc1cc(-c2ccc3c(c2)CN(C2CCC(=O)NC2=O)C3=O)n2cncc2c1)c1ccccc1 (single isomer, unassigned) ?
Output: 40 to 60%

====

- target: IKZF2 (Homo sapiens (Human), UniProt Q96SW2+Q9UKS7)
- methodNotes: In vitro IKZF2 HiBit Assay (HEK293T Flp-in-HiBiT cells)
- Format: cell-based
- testSettings: HEK-293T; HEK293T Flp-in-HiBiT cells, 6 hrs incubation; read-out: IKZF2 HiBit Dmax (%)
Please respond with reported Dmax for every item in the list.

[
  {
    "compound": "O=C1CCC(N2Cc3cc(-c4cc(CN5CCCC5)c5cn(C6COC6)nc5n4)ccc3C2=O)C(=O)N1 (centres unmarked) [Example 317]",
    "result": "60 to 80%"
  }
]

Give one value of Dmax per listed compound.
1. CC#CCn1ccc2c(CN3CCCC3)cc(-c3ccc4c(c3)CN(C3CCC(=O)NC3=O)C4=O)nc21 (centres unmarked) [Example 148]
2. CC(C)Nc1n[nH]c2c(CN3CCC4(CC3)COC4)cc(-c3ccc4c(c3F)CN(C3CCC(=O)NC3=O)C4=O)nc12 (centres unmarked) [Example 284]

Output:
1. 60 to 80%
2. > 80%

Give one value of Dmax per listed compound.
1. CC1c2cc(-c3cc(CN4CCCC4)c4ccn(C5CS(=O)(=O)C5)c4n3)ccc2C(=O)N1C1CCC(=O)NC1=O (centres unmarked) [Example 292]
2. COC1CN(Cc2cc(-c3ccc4c(c3)CN(C3CCC(=O)NC3=O)C4=O)nc3c2ccn3C)C1 (centres unmarked) [Example 85]
3. O=C1CCC(N2Cc3cc(-c4cc(CN5CCCC5)c5nccc(C6CCC6)c5n4)ccc3C2=O)C(=O)N1 (centres unmarked) [Example 247]
4. O=C1CCC(N2Cc3cc(-c4cc(CN5CCC(F)C5)c5ccn(C6CC6)c5n4)ccc3C2=O)C(=O)N1 (centres unmarked) [Example 141]

Output:
["> 80%", "> 80%", "40 to 60%", "> 80%"]
